# TESTED ON: Avi-KRAS WT (1-169) GppNHp/RAF1 RBD-3xFLAG (52-151) (Homo sapiens)
# Construct: 50 nM Avi-KRAS WT (1-169) GppNHp
# Sequence (P01116 1-169 isoform P01116-2): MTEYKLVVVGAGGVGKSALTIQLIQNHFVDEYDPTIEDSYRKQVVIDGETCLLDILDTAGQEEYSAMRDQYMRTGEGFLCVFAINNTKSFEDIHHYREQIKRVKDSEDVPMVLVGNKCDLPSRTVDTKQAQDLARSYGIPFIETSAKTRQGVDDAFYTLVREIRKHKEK
# TEST DETAILS: RAS-effector PPI HTRF disruption assay, Raf1-GppNHp-KRAS WT
READOUT TYPE: IC50

Solved cases below.
{"MOLECULE": "N#Cc1c(N)sc2c(F)ccc(-c3cc4nc(OC[C@@]56CCCN5C[C@H](F)C6)nc(O[C@H]5CNC[C@@H]5F)c4cc3C(F)(F)F)c12", "IC50": "> 10000 nM"}
{"MOLECULE": "C[C@H]1NCC[C@H]1Oc1nc(OC[C@@]23CCCN2C[C@H](F)C3)nc2c(F)c(-c3ccc(F)c4scnc34)c(C(F)(F)F)cc12", "IC50": "> 10000 nM"}
{"MOLECULE": "C[C@@H]1C[C@H](Oc2nc(OC[C@@]34CCCN3C[C@H](F)C4)nc3c(F)c(-c4ccc(F)c5sc(N)c(C#N)c45)c(Cl)cc23)CN1 (atropisomer, axis not shown) [Compound 60]", "IC50": "100 to 1000 nM"}
{"MOLECULE": "N#Cc1c(N)sc2c(F)ccc(-c3c(C(F)(F)F)cc4c(OC5CC6(CNC6)C5)nc(OC[C@@]56CCCN5C[C@H](F)C6)nc4c3F)c12", "IC50": "100 to 1000 nM"}

Problem: Give recorded IC50. Nc1nc2c(-c3c(C(F)(F)F)cc4c(O[C@H]5CNC[C@@H]5F)nc(OC[C@@]56CCCN5C[C@H](F)C6)nc4c3F)ccc(F)c2s1 (atropisomer, axis not shown) [Compound 17]
Result: 1000 to 10000 nM

Problem: Identify the reported IC50 for the following entry. C[C@@H]1C[C@H](Oc2nc(OC[C@@]34CCCN3C[C@H](F)C4)nc3c(F)c(-c4ccc(F)c5sc(N)c(C#N)c45)c(Cl)cc23)CN1 (atropisomer, axis not shown) [Compound 61]
Result: > 10000 nM

Problem: Please supply the value of reported IC50 for the item N#Cc1c(N)sc2c(F)ccc(-c3c(C(F)(F)F)cc4c(O[C@@H]5CCN[C@@H]5CF)nc(OC[C@@]56CCCN5C[C@H](F)C6)nc4c3F)c12
Result: 100 to 1000 nM

This collection of values is drawn from patent US20250084079A1.
